Experiment notes: protein stability index of a GFP-peptide fusion (yeast GPS) (PSI 1-4); higher = more stable; sorted into four equal gates, so the index is relative within each strain
Recorded conditions: doa10∆
Result type: protein stability index
No unit in the answer, only the number.

Entry under review: FTMMTSEPLTLKVLSEH [PCI8] . Reported protein stability index? 1.73

Lookup NTIRQNVTSSGDHNKLR [YML103C/NUP188] 3.12

Lookup ILTEHLGYPPISLVDDI [MTW1] 2.36

Lookup ATESIKNRRRIHGELKT [SMC1] 2.83

Lookup NSSTSSTSNTPSPPNVI [YDL088C/ASM4] 2.88

Lookup QSTQTDLEKTERIVVSY [SMC2] 2.98

Lookup FDDILKVGAEMMMQQQL [MED2] 2.66

Lookup IPFPDHNQSPRNTYQSA [RPB2] 2.97

Lookup DSFSVPNRLVKELQYDN [PRE2] 3.02

Lookup APQVYIITKNENFLKEV [GAL11] 3.37

Lookup DPVLDWRKSDRELTKNI [SIR4] 2.89

Lookup FDNVASVFMPLIFIACN [ECM29] 2.9

Lookup MDEMDNVIRSLEQEYRL [RMP1] 1.81

Lookup FIENFLTNDTFEKKLSI [YML103C/NUP188] 3.18

The measured values listed here are drawn from the supplement of paper PMC9732359.
